Where do these numbers come from? They come from ChEMBL document CHEMBL3608246.

- Tested target: Cytochrome P450 2C9 (Homo sapiens, UniProt P11712)
- Sequence (P11712 whole entry): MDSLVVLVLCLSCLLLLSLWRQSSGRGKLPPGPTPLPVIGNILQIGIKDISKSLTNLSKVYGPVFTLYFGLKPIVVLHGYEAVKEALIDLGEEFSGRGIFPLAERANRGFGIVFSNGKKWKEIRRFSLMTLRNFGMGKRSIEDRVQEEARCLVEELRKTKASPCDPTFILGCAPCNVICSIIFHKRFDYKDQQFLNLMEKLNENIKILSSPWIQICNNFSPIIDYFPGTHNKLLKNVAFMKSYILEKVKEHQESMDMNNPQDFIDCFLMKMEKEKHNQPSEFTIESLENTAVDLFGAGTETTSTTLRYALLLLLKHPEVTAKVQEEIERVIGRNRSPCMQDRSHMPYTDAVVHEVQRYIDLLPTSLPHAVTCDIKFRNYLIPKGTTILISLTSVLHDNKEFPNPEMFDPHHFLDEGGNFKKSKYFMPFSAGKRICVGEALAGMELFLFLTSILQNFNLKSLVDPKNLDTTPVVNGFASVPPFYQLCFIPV
- Assay: Inhibition of human CYP2C9 by luminometry
Measured property: EC50 (nM)

(a) COC(=O)N[C@@H](C(=O)N1CCC[C@H]1C(=O)Nc1ccc(-c2ccc(NC(=O)[C@@H]3CCCN3C(=O)[C@H](NC(=O)OC)c3ccccc3)cc2Cl)c(Cl)c1)c1ccccc1
(b) COC(=O)N[C@@H](C(=O)N1CCC[C@H]1C(=O)Nc1ccc2c(c1)C(C)(C)c1cc(NC(=O)[C@@H]3CCCN3C(=O)[C@H](NC(=O)OC)c3ccccc3)ccc1-2)c1ccccc1
From the items above, decide which of a and b has the lower EC50 reading. I would appreciate it if you answered with the label of your choice. a

====

As shown below, each of these compounds has a reported EC50 value.
- Tested target: Cytochrome P450 1A2 (Homo sapiens)
- Sequence (P05177 whole entry): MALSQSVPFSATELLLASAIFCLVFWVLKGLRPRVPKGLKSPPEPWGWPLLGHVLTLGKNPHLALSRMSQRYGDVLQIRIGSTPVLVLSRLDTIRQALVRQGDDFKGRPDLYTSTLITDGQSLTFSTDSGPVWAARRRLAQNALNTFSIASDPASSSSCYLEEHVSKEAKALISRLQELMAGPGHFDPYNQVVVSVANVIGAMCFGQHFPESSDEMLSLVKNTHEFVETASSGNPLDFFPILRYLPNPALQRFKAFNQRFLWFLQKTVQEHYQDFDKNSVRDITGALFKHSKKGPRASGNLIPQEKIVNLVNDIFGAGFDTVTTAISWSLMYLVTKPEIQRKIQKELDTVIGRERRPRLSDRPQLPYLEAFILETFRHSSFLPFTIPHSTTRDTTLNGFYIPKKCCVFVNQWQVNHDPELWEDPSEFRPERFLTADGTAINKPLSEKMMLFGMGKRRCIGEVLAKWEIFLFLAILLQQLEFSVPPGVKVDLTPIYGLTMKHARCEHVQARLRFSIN
- Assay: Inhibition of human CYP1A2 by luminometry

The cases that follow already have their EC50 on record.
COC(=O)N[C@@H](C(=O)N1CCC[C@H]1C(=O)Nc1ccc2c(c1)C(F)(F)c1cc(NC(=O)[C@@H]3CCCN3C(=O)[C@H](NC(=O)OC)c3ccccc3)ccc1-2)c1ccccc1; > 100 µM
COC(=O)N[C@@H](C(=O)N1CCC[C@H]1C(=O)Nc1ccc2c(c1)C(C)(C)c1cc(NC(=O)[C@@H]3CCCN3C(=O)[C@H](NC(=O)OC)c3ccccc3)ccc1-2)c1ccccc1; > 100 µM

Kindly consider the entry below.
Return reported EC50. Input compound: COC(=O)N[C@@H](C(=O)N1CCC[C@H]1C(=O)Nc1ccc(-c2ccc(NC(=O)[C@@H]3CCCN3C(=O)[C@H](NC(=O)OC)c3ccccc3)cc2F)c(F)c1)c1ccccc1 > 100 µM

====

- Tested on: Hepatitis C virus
- Assay: Antiviral activity against HCV genotype 2a JFH5a infected in human Huh7.5.1 cells transfected with JFH5a-Rluc-ad34 assessed as reduction in virus proliferation by luciferase reporter gene assay
- Assay type: functional, cell-based, Hepacivirus hominis, Huh-7
- Experimental conditions: Hepatitis C virus, genotype 2a JFH5a, Huh-7
Measured property: pEC50
pEC50 (log units): -log10 of the concentration in mol/L.

The cases that follow already have their pEC50 on record.
COC(=O)N[C@@H](C(=O)N1CCC[C@H]1C(=O)Nc1ccc2c(c1)Cc1cc(NC(=O)[C@@H]3CCCN3C(=O)[C@H](NC(=O)OC)c3ccccc3)ccc1-2)c1ccccc1; 8.25
COC(=O)N[C@@H](C(=O)N1CCCC[C@H]1C(=O)Nc1ccc(-c2ccc(NC(=O)[C@@H]3CCCCN3C(=O)[C@H](NC(=O)OC)c3ccccc3)cc2)cc1)c1ccccc1; 6.74
COC(=O)N[C@@H](C(=O)N1CCC[C@H]1C(=O)Nc1ccc(-c2ccc(NC(=O)[C@@H]3CCCN3C(=O)[C@H](NC(=O)OC)c3ccccc3)cc2C)c(C)c1)c1ccccc1; 9.49
COC(=O)N[C@@H](C(=O)N1CC(=O)C[C@H]1C(=O)Nc1ccc(-c2ccc(NC(=O)[C@@H]3CC(=O)CN3C(=O)[C@H](NC(=O)OC)c3ccccc3)cc2)cc1)c1ccccc1; 9.59

Return reported pEC50. Input compound: COC(=O)N[C@@H](C(=O)N1CCCC[C@@H]1C(=O)Nc1ccc(-c2ccc(NC(=O)[C@H]3CCCCN3C(=O)[C@H](NC(=O)OC)c3ccccc3)cc2)cc1)c1ccccc1 6.38

====

- Tested target: Cytochrome P450 2D6 (Homo sapiens)
- Sequence (P10635 whole entry): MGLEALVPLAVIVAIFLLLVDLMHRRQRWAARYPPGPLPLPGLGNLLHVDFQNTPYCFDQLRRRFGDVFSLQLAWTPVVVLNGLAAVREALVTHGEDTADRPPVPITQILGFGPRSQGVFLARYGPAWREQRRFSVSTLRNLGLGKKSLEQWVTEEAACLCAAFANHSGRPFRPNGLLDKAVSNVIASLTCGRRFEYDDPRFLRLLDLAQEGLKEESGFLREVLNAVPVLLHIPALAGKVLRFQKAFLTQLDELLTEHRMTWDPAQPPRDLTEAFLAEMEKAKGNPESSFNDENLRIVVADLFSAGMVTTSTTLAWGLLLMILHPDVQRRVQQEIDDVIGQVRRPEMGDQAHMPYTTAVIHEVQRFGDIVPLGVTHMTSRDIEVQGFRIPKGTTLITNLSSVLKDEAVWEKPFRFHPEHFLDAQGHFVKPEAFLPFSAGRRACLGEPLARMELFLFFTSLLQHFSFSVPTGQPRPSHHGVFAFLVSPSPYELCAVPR
- Assay: Inhibition of human CYP2D6 by luminometry
pEC50: −log10 of the molar value.
Measured property: pEC50

COC(=O)N[C@@H](C(=O)N1CCC[C@H]1C(=O)Nc1ccc2c(c1)C(C)(C)c1cc(NC(=O)[C@@H]3CCCN3C(=O)[C@H](NC(=O)OC)c3ccccc3)ccc1-2)c1ccccc1; < 4.00
COC(=O)N[C@@H](C(=O)N1CCC[C@H]1C(=O)Nc1ccc2c(c1)C(F)(F)c1cc(NC(=O)[C@@H]3CCCN3C(=O)[C@H](NC(=O)OC)c3ccccc3)ccc1-2)c1ccccc1; < 4.00

Kindly consider the entry below.
Return reported pEC50. Input compound: COC(=O)N[C@@H](C(=O)N1CCC[C@H]1C(=O)Nc1ccc(-c2ccc(NC(=O)[C@@H]3CCCN3C(=O)[C@H](NC(=O)OC)c3ccccc3)cc2C(F)(F)F)c(C(F)(F)F)c1)c1ccccc1 (stereo in doubt; form 1) < 4.00
